Ref: the NIST ThermoML archive (doi:10.1016/j.jct.2008.08.007)

assay: molar heat capacity at constant pressure; details: 343.15 K; 101.33 kPa; Crystal; Small sample (50 mg) DSC
± gives the expanded uncertainty stated by the source.

compound | molar heat capacity at constant pressure
OC[C@H]1O[C@@H](O[C@H]2[C@H](O)[C@@H](O)[C@H](O)O[C@@H]2CO)[C@H](O)[C@@H](O)[C@@H]1O | 490.7 ± 8.4 J/K/mol
OC[C@H]1O[C@@](CO)(O[C@H]2O[C@H](CO)[C@@H](O)[C@H](O)[C@H]2O)[C@@H](O)[C@@H]1O | 498.8 ± 7.8 J/K/mol
O=C[C@H](O)[C@@H](O)[C@@H](O)[C@H](O)CO [(+)-galactose] | 251.2 ± 4.8 J/K/mol
OC[C@H]1O[C@@H]2O[C@H]3[C@H](O)[C@@H](O)[C@@H](O[C@H]4[C@H](O)[C@@H](O)[C@@H](O[C@H]5[C@H](O)[C@@H](O)[C@@H](O[C@H]6[C@H](O)[C@@H](O)[C@@H](O[C@H]7[C@H](O)[C@@H](O)[C@@H](O[C@H]8[C@H](O)[C@@H](O)[C@@H](O[C@H]1[C@H](O)[C@H]2O)O[C@@H]8CO)O[C@@H]7CO)O[C@@H]6CO)O[C@@H]5CO)O[C@@H]4CO)O[C@@H]3CO | 1591.3 ± 43 J/K/mol
